- TEST_METHOD_NOTES: Clearance in rat hepatocytes assessed per 10^6 cells
- Type: ADME, cell-based, Hepatocyte
- RUN_PARAMETERS: read-out: CLH

# CHEMICAL_SMILES, MEASUREMENT_UNITS, hepatocyte CLint
rows = [
    ("CN1C(=N)N[C@@]2(c3cc(-c4ccc(F)c(C#N)c4)cs3)CN(C(=O)c3cccc(F)c3)C[C@H]2C1=O", "µL/min/1e6 cells", 46),
]

* * *

- TEST_METHOD_NOTES: Cmax in rat at 10 mg/kg, po
- Assay type: ADME, organism-based
- Parameters: dose 10 mg/kg, route oral
- RUN_PARAMETERS: in vivo
QUANTITY_MEASURED: Cmax (µM)

# CHEMICAL_SMILES, MEASUREMENT_UNITS, MEASUREMENT
records = [
    ("CN1C(=N)N[C@@]2(c3cc(-c4cccc(C#N)c4)cs3)CN(c3ncc(F)cn3)C[C@H]2C1=O", "µM", 6.1),
]
